TEST TARGET: T1, Human FGFR2 IIIb D1-3 (human)
T1 construct: Extracellular domains D1-3 with C-terminal tag, made in HEK293T; also called recombinant human FGFR2 IIIb; hFGFR2
T1 chain: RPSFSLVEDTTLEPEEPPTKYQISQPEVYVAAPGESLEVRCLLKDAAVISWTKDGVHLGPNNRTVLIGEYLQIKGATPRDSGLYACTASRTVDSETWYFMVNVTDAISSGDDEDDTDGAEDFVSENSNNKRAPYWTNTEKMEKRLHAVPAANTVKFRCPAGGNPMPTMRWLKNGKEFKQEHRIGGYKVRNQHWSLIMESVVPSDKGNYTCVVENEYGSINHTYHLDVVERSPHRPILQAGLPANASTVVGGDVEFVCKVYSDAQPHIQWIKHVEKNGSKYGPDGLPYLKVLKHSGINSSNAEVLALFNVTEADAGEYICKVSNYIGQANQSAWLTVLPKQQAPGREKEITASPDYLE
MEASUREMENT DESCRIPTION: SPR Biacore, method as Example 2
PROPERTY LABEL: Kd (nM)

INSERT INTO measurements (binder, property_label, units, numeric_value) VALUES
  ('mAb11725 (antibody, human IgG1, lambda, V domains shown, HuCAL human IgG1) VH: QVQLLESGGGLVQPGGSLRLSCAASGFTFNTYWLHWVRQAPGKGLEWVSVISSDSSSTYYADSVKGRFTISRDNSKNTLYLQMNSLRAEDTAVYYCARDSRLDYWGQGTLVTVSS VL: DIELTQPPSVSVSPGQTASITCSGDSIGDTYVDWYQQKPGQAPVLVIYDDIDRPSGIPERFSGSNSGNTATLTISGTQAEDEADYYCYVYAWTGTSNVFGGGTKLTVLG', 'Kd', 'nM', 3.3),
  ('mAb12422 (antibody, human IgG1, kappa, V domains shown, HuCAL human IgG1) VH: QVQLVQSGAEVKKPGSSVKVSCKASGGTFSSYAISWVRQAPGQGLEWMGYISPYMGETHYAQKFQGRVTITADESTSTAYMELSSLRSEDTAVYYCARESYEYFDIWGQGTLVTVSS VL: DIQMTQSPSSLSASVGDRVTITCRASQSISNDLAWYQQKPGKAPKLLIYATSILQSGVPSRFSGSGSGTDFTLTISSLQPEDFATYYCLQYYDYSYTFGQGTKVEIKR', 'Kd', 'nM', 5.1),
  ('mAb12439 (antibody, human IgG1, kappa, V domains shown, HuCAL human IgG1) VH: QVQLVQSGAEVKKPGASVKVSCKASGYTFTSYDISWVRQAPGQGLEWMGWINPYNGGTNYAQKFQGRVTMTRDTSISTAYMELSRLRSEDTAVYYCAREGSGMIVYPGWSYAFDYWGQGTLVTVSS VL: DIQMTQSPSSLSASVGDRVTITCRASQDISNDLGWYQQKPGKAPKLLIYAASSLQSGVPSRFSGSGSGTDFTLTISSLQPEDFATYYCQQHYHTPNTFGQGTKVEIKR', 'Kd', 'nM', 15),
  ('mAb12947 (antibody, human IgG1, kappa, V domains shown, HuCAL human IgG1) VH: QVQLVQSGAEVKKPGSSVKVSCKASGGTFSSYAISWVRQAPGQGLEWMGSIQPTAGPARYAQKFQGRVTITADESTSTAYMELSSLRSEDTAVYYCARASLYSVATGSYWKVYHPFDSWGQGTLVTVSS VL: DIQMTQSPSSLSASVGDRVTITCRASQDIYSYLAWYQQKPGKAPKLLIYDASSLQSGVPSRFSGSGSGTDFTLTISSLQPEDFATYYCQQADQYPVTFGQGTKVEIKR', 'Kd', 'nM', 2.7),
  ('mAb12433 (antibody, human IgG1, kappa, V domains shown, HuCAL human IgG1) VH: QVQLVQSGAEVKKPGESLKISCKGSGYSFTNYYIHWVRQMPGKGLEWMGAIYPDNSDTTYSPSFQGQVTISADKSISTAYLQWSSLKASDTAMYYCARGADIWGQGTLVTVSS VL: DIQMTQSPSSLSASVGDRVTITCRASQDIDPYLSNWYQQKPGKAPKLLIYDASNLQSGVPSRFSGSGSGTDFTLTISSLQPEDFATYYCQQTTSHPYTFGQGTKVEIKR', 'Kd', 'nM', 5.6),
  ('mAb10164 (antibody, human IgG1, lambda, V domains shown, HuCAL human IgG1) VH: QVQLVESGGGLVKPGGSLRLSCAASGFTFSSYALSWVRQAPGKGLEWVGRIRSKIDGGTTDYAAPVKGRFTISRDDSKNTLYLQMNSLKTEDTAVYYCARDRSPSDSSAFAIWGQGTLVTVSS VL: DIELTQPPSVSVSPGQTASITCSGDNLGSQYVDWYQQKPGQAPVLVIYDDNDRPSGIPERFSGSNSGNTATLTISGTQAEDEADYYCQSWDSLSVVFGGGTKLTVLG', 'Kd', 'nM', 2);
